Numbers sourced from the supplement of paper PMC11208160.

assay: recombinant UMI read abundance after kanamycin selection (control-corrected) (log10(CPM+1)); higher = more efficient recombination; extreme values may be limits of the assay; sequences stand for … in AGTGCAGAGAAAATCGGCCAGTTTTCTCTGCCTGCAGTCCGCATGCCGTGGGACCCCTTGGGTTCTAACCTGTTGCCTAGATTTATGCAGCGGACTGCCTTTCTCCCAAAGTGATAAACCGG…AGGTTGGTTTCACT; site = the 11-nt donor;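 further: IS621 bridge recombinase in Escherichia coli cells against a fixed T5 target plasmid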
Label scheme for recombinant UMI read abundance (log10): lower than 1 is label 0, 1 and above is label 1.

- biosequence: "GATTGGACATGGACCGGTTTTCCCGGTAATCCGTATTTGAT (site GATTGGACTTT)"
  category: "label 0"
- biosequence: "TAATGAGCATGGACCGGTTTTCCCGGTAATCCGTATTTGGT (site TAATGAGCTCC)"
  category: "label 0"
- biosequence: "AGGGAACCATGGACCGGTTTTCCCGGTAATCCGTATTTGAT (site TGGGAACCTAT)"
  category: "label 0"
- biosequence: "AGGCACGCATGGACCGGTTTTCCCGGTAATCCGTATTTGGG (site AAGCACGCTCC)"
  category: "label 0"
- biosequence: "GCGAAGCCATGGACCGGTTTTCCCGGTAATCCGTATTTGGG (site GCGAAGGCTCC)"
  category: "label 0"
- biosequence: "TAGCTAGCATGGACCGGTTTTCCCGGTAATCCGTATTTGAG (site TAGCTAGCTGT)"
  category: "label 0"
- biosequence: "ATAACTCCATGGACCGGTTTTCCCGGTAATCCGTATTTGCC (site ATAACTCCTGG)"
  category: "label 1"
- biosequence: "GTGGAGGCATGGACCGGTTTTCCCGGTAATCCGTATTTGTG (site GTGGATGCTCA)"
  category: "label 1"

Ask: Form field: recombinant UMI read abundance (log10) at least 1? Entry: CGTCTCTCATGGACCGGTTTTCCCGGTAATCCGTATTTGGG (site CGTCTCTCTCC)
Reply: label 0

Ask: Form field: recombinant UMI read abundance (log10) at least 1? Entry: AGGACTACATGGACCGGTTTTCCCGGTAATCCGTATTTGGC (site AGGACTACTGT)
Reply: label 1

Ask: Form field: recombinant UMI read abundance (log10) at least 1? Entry: GGTAATTCATGGACCGGTTTTCCCGGTAATCCGTATTTGGT (site GGTAATTCTAC)
Reply: label 1

Ask: Form field: recombinant UMI read abundance (log10) at least 1? Entry: CGTGGAACATGGACCGGTTTTCCCGGTAATCCGTATTTGTT (site CGAGGAACTAA)
Reply: label 1

Ask: Form field: recombinant UMI read abundance (log10) at least 1? Entry: GTTCCGACATGGACCGGTTTTCCCGGTAATCCGTATTTGTG (site GTTCCGACTCA)
Reply: label 0

Ask: Form field: recombinant UMI read abundance (log10) at least 1? Entry: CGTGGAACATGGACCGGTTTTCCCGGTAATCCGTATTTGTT (site CCTGGAACTAA)
Reply: label 0
